- System: Escherichia coli 139
- procedure text: in vitro antimicrobial activity (MIC), agar dilution, Part 2
- Assay type: cell-based
- conditions: Escherichia coli 139, Cow; read-out: MIC
- Method: Test microorganisms listed in Table 2 were cultured overnight in heart infusion nutrient broth (produced by Eiken Chemical Co., Ltd.). Culture broth containing about 10⁸/ml cells was diluted to a volume of 100 times. […] MIC of Compounds (1)-(8) against various pathogenic bacteria derived from animals was determined in the same manner as in Example 1.
Would you kindly list MIC for each of these compounds?
Express your answer in µg/mL, writing the number without its unit.

**Query** Item: CCCN1CCN(c2c(F)cc3c(=O)c(C(=O)O)cn4c3c2OC[C@@H]4C)CC1 [Compound (7)] Test system: Escherichia coli 139 Read-out: MIC Value: ?
**Result** 0.2

**Query** Consider next the compound CCN1CCN(c2c(F)cc3c(=O)c(C(=O)O)cn4c3c2OC[C@@H]4C)CC1 [(6)] in the same way.
**Result** 0.1

**Query** Consider next the compound C[C@H]1COc2c(N3CCN(C)CC3)c(F)cc3c(=O)c(C(=O)O)cn1c23 [Compound (1), hemihydrate] in the same way.
**Result** 0.05

**Query** Consider next the compound CCN1CCN(c2c(F)cc3c(=O)c(C(=O)O)cn4c3c2OCC4C)CC1 (racemic) [Compound (2)] in the same way.
**Result** 0.2

**Query** Consider next the compound CCCN1CCN(c2c(F)cc3c(=O)c(C(=O)O)cn4c3c2OCC4C)CC1 (racemic) [Compound (3)] in the same way.
**Result** 0.39

**Query** Consider next the compound CC(C)N1CCN(c2c(F)cc3c(=O)c(C(=O)O)cn4c3c2OCC4C)CC1 (racemic) [(4)] in the same way.
**Result** 0.78

**Query** Consider next the compound CCCCN1CCN(c2c(F)cc3c(=O)c(C(=O)O)cn4c3c2OCC4C)CC1 (racemic) [Compound (5)] in the same way.
**Result** 0.78
